MEASUREMENT_NOTES: Selectivity index, ratio of IC50 for electric eel AChE to IC50 for equine serum BuChE
Hi, to clarify the labels: label 1 covers Ratio IC50 from 2 upward, label 0 covers anything below 2.

In [3]: df
Out[3]:
                            molecular_string  classification
 0         OCCCCCCNc1cc(-c2ccccc2)nc2ccccc12         label 1
 1   c1ccc(-c2cc(NCCCN3CCCCC3)c3ccccc3n2)cc1         label 1
 2     OCCCNc1cc(-c2ccc3c(c2)OCO3)nc2ccccc12         label 0
 3    OCCCCNc1cc(-c2ccc3c(c2)OCO3)nc2ccccc12         label 0
 4  c1ccc2c(N3CCCC3)cc(-c3ccc4c(c3)OCO4)nc2c1         label 1
 5           OCCCCNc1cc(-c2ccccc2)nc2ccccc12         label 1
 6     CCCCNc1cc(-c2ccc3c(c2)OCO3)nc2ccccc12         label 0
 7        COc1cc(-c2ccc3c(c2)OCO3)nc2ccccc12         label 0
 8  c1ccc2c(NCCCN3CCCCC3)cc(-c3ccc4c(c3)OCO4)nc2c1         label 1
 9  c1ccc2c(NCCCN3CCOCC3)cc(-c3ccc4c(c3)OCO4)nc2c1         label 0
10  c1ccc2c(N3CCCCC3)cc(-c3ccc4c(c3)OCO4)nc2c1         label 1
11        c1ccc(-c2cc(N3CCCC3)c3ccccc3n2)cc1         label 1
12   c1ccc(-c2cc(NCCCN3CCOCC3)c3ccccc3n2)cc1         label 1
13  OCCCCCCNc1cc(-c2ccc3c(c2)OCO3)nc2ccccc12         label 0
